FYI, the data here is from the supplement of paper PMC6757056.

B1: library; a variant is named by its letters at N, in order (parent)
chain: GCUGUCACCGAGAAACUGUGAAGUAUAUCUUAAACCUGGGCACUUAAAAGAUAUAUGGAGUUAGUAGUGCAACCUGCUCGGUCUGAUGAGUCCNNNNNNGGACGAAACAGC

- Variants of: B1
- assay-method-text: normalized RNA/DNA level without ligand (relative to sTRSVctl = 100) (log10 (% of sTRSVctl)); HEK293T; ligand: cyclic di-GMP (c-di-GMP-II aptamer); higher = less ribozyme self-cleavage, higher mRNA level
- measurement-context: reporter: mCherry (pCS4076), ligand present: no
parameter-measured: normalized RNA/DNA level without ligand (log10)

[[record]]
ordered_residues = "GCUGUCACCGAGAAACUGUGAAGUAUAUCUUAAACCUGGGCACUUAAAAGAUAUAUGGAGUUAGUAGUGCAACCUGCUCGGUCUGAUGAGUCCUCCGAUGGACGAAACAGC"
meas_value = 1.59

[[record]]
ordered_residues = "GCUGUCACCGAGAAACUGUGAAGUAUAUCUUAAACCUGGGCACUUAAAAGAUAUAUGGAGUUAGUAGUGCAACCUGCUCGGUCUGAUGAGUCCUACUCAGGACGAAACAGC"
meas_value = 1.77

[[record]]
ordered_residues = "GCUGUCACCGAGAAACUGUGAAGUAUAUCUUAAACCUGGGCACUUAAAAGAUAUAUGGAGUUAGUAGUGCAACCUGCUCGGUCUGAUGAGUCCCCGACUGGACGAAACAGC"
meas_value = 1.59

[[record]]
ordered_residues = "GCUGUCACCGAGAAACUGUGAAGUAUAUCUUAAACCUGGGCACUUAAAAGAUAUAUGGAGUUAGUAGUGCAACCUGCUCGGUCUGAUGAGUCCACAGAAGGACGAAACAGC"
meas_value = 1.29

[[record]]
ordered_residues = "GCUGUCACCGAGAAACUGUGAAGUAUAUCUUAAACCUGGGCACUUAAAAGAUAUAUGGAGUUAGUAGUGCAACCUGCUCGGUCUGAUGAGUCCCCCCACGGACGAAACAGC"
meas_value = 1.75

[[record]]
ordered_residues = "GCUGUCACCGAGAAACUGUGAAGUAUAUCUUAAACCUGGGCACUUAAAAGAUAUAUGGAGUUAGUAGUGCAACCUGCUCGGUCUGAUGAGUCCCCUCGCGGACGAAACAGC"
meas_value = 1.74

[[record]]
ordered_residues = "GCUGUCACCGAGAAACUGUGAAGUAUAUCUUAAACCUGGGCACUUAAAAGAUAUAUGGAGUUAGUAGUGCAACCUGCUCGGUCUGAUGAGUCCGAUUUUGGACGAAACAGC"
meas_value = 1.66

[[record]]
ordered_residues = "GCUGUCACCGAGAAACUGUGAAGUAUAUCUUAAACCUGGGCACUUAAAAGAUAUAUGGAGUUAGUAGUGCAACCUGCUCGGUCUGAUGAGUCCACAAUUGGACGAAACAGC"
meas_value = 1.32

[[record]]
ordered_residues = "GCUGUCACCGAGAAACUGUGAAGUAUAUCUUAAACCUGGGCACUUAAAAGAUAUAUGGAGUUAGUAGUGCAACCUGCUCGGUCUGAUGAGUCCGAGUCCGGACGAAACAGC"
meas_value = 1.8

[[record]]
ordered_residues = "GCUGUCACCGAGAAACUGUGAAGUAUAUCUUAAACCUGGGCACUUAAAAGAUAUAUGGAGUUAGUAGUGCAACCUGCUCGGUCUGAUGAGUCCGAAGUUGGACGAAACAGC"
meas_value = 1.55

[[record]]
ordered_residues = "GCUGUCACCGAGAAACUGUGAAGUAUAUCUUAAACCUGGGCACUUAAAAGAUAUAUGGAGUUAGUAGUGCAACCUGCUCGGUCUGAUGAGUCCUUCUCGGGACGAAACAGC"
meas_value = 1.8

[[record]]
ordered_residues = "GCUGUCACCGAGAAACUGUGAAGUAUAUCUUAAACCUGGGCACUUAAAAGAUAUAUGGAGUUAGUAGUGCAACCUGCUCGGUCUGAUGAGUCCUAUUUCGGACGAAACAGC"
meas_value = 1.75

[[record]]
ordered_residues = "GCUGUCACCGAGAAACUGUGAAGUAUAUCUUAAACCUGGGCACUUAAAAGAUAUAUGGAGUUAGUAGUGCAACCUGCUCGGUCUGAUGAGUCCUACGUAGGACGAAACAGC"
meas_value = 1.64

[[record]]
ordered_residues = "GCUGUCACCGAGAAACUGUGAAGUAUAUCUUAAACCUGGGCACUUAAAAGAUAUAUGGAGUUAGUAGUGCAACCUGCUCGGUCUGAUGAGUCCCGCAUCGGACGAAACAGC"
meas_value = 1.66

[[record]]
ordered_residues = "GCUGUCACCGAGAAACUGUGAAGUAUAUCUUAAACCUGGGCACUUAAAAGAUAUAUGGAGUUAGUAGUGCAACCUGCUCGGUCUGAUGAGUCCGACGCCGGACGAAACAGC"
meas_value = 1.75

[[record]]
ordered_residues = "GCUGUCACCGAGAAACUGUGAAGUAUAUCUUAAACCUGGGCACUUAAAAGAUAUAUGGAGUUAGUAGUGCAACCUGCUCGGUCUGAUGAGUCCAGUCCAGGACGAAACAGC"
meas_value = 1.66

[[record]]
ordered_residues = "GCUGUCACCGAGAAACUGUGAAGUAUAUCUUAAACCUGGGCACUUAAAAGAUAUAUGGAGUUAGUAGUGCAACCUGCUCGGUCUGAUGAGUCCACUAUCGGACGAAACAGC"
meas_value = 1.62

[[record]]
ordered_residues = "GCUGUCACCGAGAAACUGUGAAGUAUAUCUUAAACCUGGGCACUUAAAAGAUAUAUGGAGUUAGUAGUGCAACCUGCUCGGUCUGAUGAGUCCGUCGCUGGACGAAACAGC"
meas_value = 1.68

[[record]]
ordered_residues = "GCUGUCACCGAGAAACUGUGAAGUAUAUCUUAAACCUGGGCACUUAAAAGAUAUAUGGAGUUAGUAGUGCAACCUGCUCGGUCUGAUGAGUCCAGAAUGGGACGAAACAGC"
meas_value = 1.48

[[record]]
ordered_residues = "GCUGUCACCGAGAAACUGUGAAGUAUAUCUUAAACCUGGGCACUUAAAAGAUAUAUGGAGUUAGUAGUGCAACCUGCUCGGUCUGAUGAGUCCCGUGACGGACGAAACAGC"
meas_value = 1.58

[[record]]
ordered_residues = "GCUGUCACCGAGAAACUGUGAAGUAUAUCUUAAACCUGGGCACUUAAAAGAUAUAUGGAGUUAGUAGUGCAACCUGCUCGGUCUGAUGAGUCCAGUCUGGGACGAAACAGC"
meas_value = 1.63

[[record]]
ordered_residues = "GCUGUCACCGAGAAACUGUGAAGUAUAUCUUAAACCUGGGCACUUAAAAGAUAUAUGGAGUUAGUAGUGCAACCUGCUCGGUCUGAUGAGUCCCGGUUAGGACGAAACAGC"
meas_value = 1.27

